Hey, just so you know, these numbers are from the RNAGym collection of RNA variant scans (doi:10.7554/elife.80360).

B1: HDV Ribozyme (parent)
chain: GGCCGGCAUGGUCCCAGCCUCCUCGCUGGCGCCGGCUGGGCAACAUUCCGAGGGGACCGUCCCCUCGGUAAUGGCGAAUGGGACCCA

# Variants of: B1
# Test details: self-cleavage, relative activity (ratio to wild type); higher = more cleavage; co-transcriptional
Readout kind: self-cleavage
No unit in the answer, please; the number alone is enough.

GET /value?item= C64G C85A &field=self-cleavage returns 0.956

GET /value?item= C24U C26U &field=self-cleavage returns 0.867

GET /value?item= C13A G74C &field=self-cleavage returns 0.0346

GET /value?item= U20C U69G &field=self-cleavage returns 0.0639

GET /value?item= C41U C84U &field=self-cleavage returns 0.765

GET /value?item= A56G U60G &field=self-cleavage returns 0.831

GET /value?item= G17A G38A &field=self-cleavage returns 0.104

GET /value?item= G1A G54U &field=self-cleavage returns 0.0475

GET /value?item= G6U A45G &field=self-cleavage returns 0.403

GET /value?item= C15A G34U &field=self-cleavage returns 0

GET /value?item= U37A G76U &field=self-cleavage returns 0.469

GET /value?item= G31U C57U &field=self-cleavage returns 0.383

GET /value?item= G67A G73U &field=self-cleavage returns 0.227

GET /value?item= C18U G67C &field=self-cleavage returns 0.436

GET /value?item= C7G C84A &field=self-cleavage returns 0.111

GET /value?item= U69A A83C &field=self-cleavage returns 0.499

GET /value?item= G34C C62G &field=self-cleavage returns 0.0639

GET /value?item= U23A G39U &field=self-cleavage returns 0.696

GET /value?item= C36G C63G &field=self-cleavage returns 0.212

GET /value?item= U60A C66A &field=self-cleavage returns 0.972

GET /value?item= G5A C33G &field=self-cleavage returns 0.0615

GET /value?item= C18G U65G &field=self-cleavage returns 0.115

GET /value?item= G10A G54A &field=self-cleavage returns 0.591

GET /value?item= G31A A42U &field=self-cleavage returns 0.107

GET /value?item= C18U A45U &field=self-cleavage returns 0.361

GET /value?item= U12A C66A &field=self-cleavage returns 0.193

GET /value?item= G39U A43G &field=self-cleavage returns 0.0811

GET /value?item= A8U U27G &field=self-cleavage returns 0.906

GET /value?item= G39A U47C &field=self-cleavage returns 0.208

GET /value?item= G35U C63U &field=self-cleavage returns 0.513

GET /value?item= G81A C85U &field=self-cleavage returns 0.163

GET /value?item= U46A G53A &field=self-cleavage returns 0.741

GET /value?item= C4A A8U &field=self-cleavage returns 0.0723
